The origin of these recorded values is the Immune Epitope Database (IEDB).

target: HLA-A*02:19; experiment: IEDB peptide-MHC binding, purified MHC/competitive/fluorescence; filed as Kd, often an IC50 or EC50 that approximates it; bounds were set here for any values at or beyond the usual limits of such assays; conditions: source organism: Human immunodeficiency virus type 1 (Z-84 ISOLATE)
pKd: −log10 of the molar value.
Endpoint: pKd

Identify pKd associated with the sequence `YIKIFIMIV`
≤ 4.70

----------
target: HLA-B*40:01; test: IEDB peptide-MHC binding, purified MHC/direct/fluorescence; filed as Kd, often an IC50 or EC50 that approximates it; bounds were set here for any values at or beyond the usual limits of such assays; settings: source organism: Brucella abortus
pKd: −log10 of the molar value.
Endpoint: pKd

Identify pKd associated with the sequence `SRIGAWASK`
≤ 4.70

----------
target: HLA-B*40:01; assay: IEDB peptide-MHC binding, purified MHC/direct/fluorescence; filed as Kd, often an IC50 or EC50 that approximates it; bounds were set here for any values at or beyond the usual limits of such assays; details: source organism: Influenza A virus (A/England/627/01(H1N2))
Endpoint: Kd

Identify Kd associated with the sequence `KMARLGKGY`
≥ 20 µM

----------
target: HLA-A*11:01; assay: IEDB peptide-MHC binding, purified MHC/competitive/radioactivity; filed as Kd, often an IC50 or EC50 that approximates it; bounds were set here for any values at or beyond the usual limits of such assays; details: source organism: SARS coronavirus Tor2
Endpoint: Kd (nM)
Numeric only. Scale: nM

Identify Kd associated with the sequence `MSLSEQLRK`
4.01

Identify Kd associated with the sequence `QSADASTFLK`
10.2

Identify Kd associated with the sequence `ALLSTDGNK`
494

Identify Kd associated with the sequence `DFYDFAVSK`
8940

Identify Kd associated with the sequence `AVHDFFKFR`
7.56

Identify Kd associated with the sequence `STNLCTHSFR`
10.6

Identify Kd associated with the sequence `STPIVVQMTK`
14.2

Identify Kd associated with the sequence `MLAHAEETRK`
6390

Identify Kd associated with the sequence `TVYDDAARR`
97.1

Identify Kd associated with the sequence `ATKIIALNK`
334

Identify Kd associated with the sequence `GVIADYNYK`
5.97

----------
biological target: HLA-A*02:01; experiment: IEDB peptide-MHC binding, purified MHC/direct/fluorescence; filed as Kd, often an IC50 or EC50 that approximates it; bounds were set here for any values at or beyond the usual limits of such assays; conditions: source organism: Bacillus licheniformis
Endpoint: Kd (nM)
Numeric only. Scale: nM

Identify Kd associated with the sequence `KTIECSKEL`
235

----------
biological target: HLA-B*27:05; test: IEDB peptide-MHC binding, purified MHC/direct/fluorescence; filed as Kd, often an IC50 or EC50 that approximates it; bounds were set here for any values at or beyond the usual limits of such assays; conditions: source organism: Brucella melitensis
Endpoint: Kd (nM)
Numeric only. Scale: nM

Identify Kd associated with the sequence `SRIGAWASK`
53.1

----------
target: HLA-A*26:01; experiment: IEDB peptide-MHC binding, purified MHC/competitive/fluorescence; filed as Kd, often an IC50 or EC50 that approximates it; bounds were set here for any values at or beyond the usual limits of such assays; conditions: source organism: Orthohantavirus sinnombreense
pKd: −log10 of the molar value.
Endpoint: pKd

Identify pKd associated with the sequence `YLQAKSQVL`
≤ 4.70

----------
biological target: HLA-B*39:01; assay: IEDB peptide-MHC binding, purified MHC/direct/fluorescence; filed as Kd, often an IC50 or EC50 that approximates it; bounds were set here for any values at or beyond the usual limits of such assays; conditions: source organism: Giardia lamblia ATCC 50803
Endpoint: Kd

Report Kd from HLA-B*39:01 testing of `LLIQGLKTV`
≥ 20 µM

Report Kd from HLA-B*39:01 testing of `PPPPLQHPI`
≥ 20 µM

----------
molecular target: HLA-A*02:01; assay: IEDB peptide-MHC binding, purified MHC/direct/fluorescence; filed as Kd, often an IC50 or EC50 that approximates it; bounds were set here for any values at or beyond the usual limits of such assays; conditions: source organism: Reston ebolavirus - Reston
Endpoint: pKd
// returns pKd (minus log10 of molar concentration), number only

Identify pKd associated with the sequence `LIMEFNSLL`
8.28

----------
molecular target: HLA-B*44:02; assay: IEDB peptide-MHC binding, purified MHC/competitive/radioactivity; filed as Kd, often an IC50 or EC50 that approximates it; bounds were set here for any values at or beyond the usual limits of such assays; details: source organism: Mammarenavirus brazilense
For each record, write down the corresponding pKd.
// returns pKd (minus log10 of molar concentration), number only

Identify pKd associated with the sequence `IDPTLTTWI`
5.45

Identify pKd associated with the sequence `GEHSLPRCW`
7.62

Identify pKd associated with the sequence `LESAQPGLL`
5.53

----------
target: HLA-B*40:01; experiment: IEDB peptide-MHC binding, purified MHC/direct/fluorescence; filed as Kd, often an IC50 or EC50 that approximates it; bounds were set here for any values at or beyond the usual limits of such assays; settings: source organism: Brucella suis
Endpoint: Kd

Identify Kd associated with the sequence `DVIGNDRQE`
≥ 20 µM

----------
biological target: HLA-B*44:03; experiment: IEDB peptide-MHC binding, purified MHC/competitive/radioactivity; filed as Kd, often an IC50 or EC50 that approximates it; bounds were set here for any values at or beyond the usual limits of such assays; settings: source organism: Mammarenavirus choriomeningitidis
Endpoint: Kd (nM)
Numeric only. Scale: nM

Identify Kd associated with the sequence `IETALRTLI`
2200

----------
target: HLA-A*02:01; experiment: IEDB peptide-MHC binding, purified MHC/direct/fluorescence; filed as Kd, often an IC50 or EC50 that approximates it; bounds were set here for any values at or beyond the usual limits of such assays; settings: source organism: Brucella abortus
Endpoint: Kd

Identify Kd associated with the sequence `SRIGAWASK`
≥ 20 µM

----------
target: HLA-B*58:01; experiment: IEDB peptide-MHC binding, purified MHC/direct/fluorescence; filed as Kd, often an IC50 or EC50 that approximates it; bounds were set here for any values at or beyond the usual limits of such assays; conditions: source organism: Mycolicibacterium gilvum
pKd: −log10 of the molar value.
Endpoint: pKd

Identify pKd associated with the sequence `PHDPDFLVL`
≤ 4.70

----------
target: HLA-A*01:01; experiment: IEDB peptide-MHC binding, purified MHC/direct/fluorescence; filed as Kd, often an IC50 or EC50 that approximates it; bounds were set here for any values at or beyond the usual limits of such assays; details: source organism: Mycolicibacterium gilvum
Endpoint: Kd

Identify Kd associated with the sequence `PHDPDFLVL`
≥ 20 µM

----------
biological target: HLA-A*01:01; experiment: IEDB peptide-MHC binding, purified MHC/direct/fluorescence; filed as Kd, often an IC50 or EC50 that approximates it; bounds were set here for any values at or beyond the usual limits of such assays; conditions: source organism: Influenza A virus (A/swine/Hong Kong/5190/99(H3N2))
pKd: −log10 of the molar value.
Endpoint: pKd

Identify pKd associated with the sequence `YMFESKSMK`
≤ 4.70

----------
molecular target: HLA-B*15:17; experiment: IEDB peptide-MHC binding, purified MHC/competitive/fluorescence; filed as Kd, often an IC50 or EC50 that approximates it; bounds were set here for any values at or beyond the usual limits of such assays; conditions: source organism: Orthohantavirus andesense
pKd: −log10 of the molar value.
Endpoint: pKd

Identify pKd associated with the sequence `VWKQLFPEL`
≤ 4.70

----------
target: HLA-B*08:01; assay: IEDB peptide-MHC binding, purified MHC/direct/fluorescence; filed as Kd, often an IC50 or EC50 that approximates it; bounds were set here for any values at or beyond the usual limits of such assays; settings: source organism: Influenza A virus (A/Hong Kong/507/97(H5N1))
pKd: −log10 of the molar value.
Endpoint: pKd

Identify pKd associated with the sequence `GTSKIKMKW`
≤ 4.70

----------
target: HLA-B*39:01; assay: IEDB peptide-MHC binding, purified MHC/competitive/fluorescence; filed as Kd, often an IC50 or EC50 that approximates it; bounds were set here for any values at or beyond the usual limits of such assays; details: source organism: Orthomarburgvirus marburgense
Endpoint: Kd (nM)
Numeric only. Scale: nM

Identify Kd associated with the sequence `NQECWDSVF`
364

----------
biological target: HLA-B*15:17; test: IEDB peptide-MHC binding, purified MHC/competitive/fluorescence; filed as Kd, often an IC50 or EC50 that approximates it; bounds were set here for any values at or beyond the usual limits of such assays; details: source organism: Orthohantavirus sinnombreense
Endpoint: Kd

Identify Kd associated with the sequence `YLQAKSQVL`
≥ 20 µM

----------
molecular target: HLA-A*26:01; assay: IEDB peptide-MHC binding, purified MHC/direct/fluorescence; filed as Kd, often an IC50 or EC50 that approximates it; bounds were set here for any values at or beyond the usual limits of such assays; settings: source organism: Campylobacter jejuni
pKd: −log10 of the molar value.
Endpoint: pKd

Identify pKd associated with the sequence `SFWFFHPPY`
≤ 4.70
